- Test system: SK-MEL-2 melanoma
The reply should be one of these categories: active, inactive

Brc1ccc([I+]c2ccc(Br)cc2)cc1 inactive
CC(C)(C)c1ccc([I+]c2ccc(C(C)(C)C)cc2)cc1 inactive
COC(=O)CCC(=O)c1c(C)[nH]c(/C=C2\N=C(c3ccc[nH]3)C=C2OC)c1C active

Hi, sorry to bother you, what did the test record for CN1C(=O)CNC(=O)[C@H](NC(=O)c2nc3ccccc3cc2O)CSSC[C@H]1C(=O)NCCc1nc2ccccc2cc1O ?
inactive

Now give it for O=C(COc1cccc(/C=C2\COc3ccccc3C2=O)c1)Nc1nccs1 too.
inactive

Now give it for C(=C1c2ccccc2-c2ccccc21)c1ccccn1 too.
inactive

Now give it for CCC[CH2][Sn]([CH2]CCC)([O]C(=O)c1cccc(F)c1)[O]C(=O)c1cccc(F)c1 too.
inactive

Now give it for CCOC(=O)CC1(O)C=CC(=O)C=C1 too.
inactive

----------
- System: MDA-MB-231 breast
- METHOD_NOTES: NCI tumour cell line growth inhibition, 48 h
ENDPOINT_LABEL: TGI (µM)
One number for each entry, in µM.

The cases that follow already have their TGI on record.
COMPOUND	TGI [µM]
CC(C)(C)c1ccc([I+]c2ccc(C(C)(C)C)cc2)cc1	2.83
COc1cccc(/C=N\Nc2ccc([N+](=O)[O-])cn2)c1O	96.2
CS(=O)(=O)CCNCc1ccc(-c2ccc3ncnc(Nc4ccc(OCc5cccc(C(F)(F)F)c5)cc4)c3c2)o1	14.1
COc1ccc2c3c1OC1C(=O)C=CC4(O)C(C2)NCC[C@@]314 (stereo partly specified)	9.01

From here, focus on the item given below.
// TGI lookup, key: COc1ccc2[nH]cc(-c3nc(-c4cn(C)c5ccncc45)cs3)c2c1
3.4

----------
- Tested on: NCI-H226 lung
- METHOD_NOTES: NCI tumour cell line growth inhibition, 48 h
Please provide measured TGI for the entries that follow.

COMPOUND	TARGET_SYSTEM	TGI
CCN(CC)c1ccc2c(c1)Oc1nc(N)c(C#N)c(N)c1C2Sc1ccc(SC)cc1 (stereo not given)	NCI-H226 lung	2.89 µM
CC(=O)Oc1ccc2c(c1)c1c(=O)oc(N(C)C)nc1n2Cc1ccccc1	NCI-H226 lung	> 100 µM
N#Cc1[nH]c(=O)n(-c2ccc(Cl)cc2)c1N	NCI-H226 lung	> 10 µM

Go through the list and state TGI for each entry.
1. Nc1cc(-c2ccccc2)ccc1O
2. O=C(Cn1nc(Br)c(Br)c1Br)c1ccccc1
3. CCCNCc1nc2ccc(Br)cc2c(=O)n1CCC

1. > 100 µM
2. 63.5 µM
3. 26 µM

Go through the list and state TGI for each entry.
1. CCP(=O)(CC)C(Cl)(Cl)C(O)C(C)(C)C (stereo not given)
2. CC(=O)Nc1ncc(Sc2ccccc2C(=O)O)s1

> 100 µM
> 100 µM

Go through the list and state TGI for each entry.
1. Cn1c(=O)cc2c3c(c(NCCCO)ccc31)C(=O)c1ccccc1-2
2. CCOP(=O)(/C=C\n1cnc2c(=O)n(C(C)=O)c(N)nc21)OCC
3. N=C(N)SCCc1cn2ccccc2n1
4. Cc1cc2[nH]c3c(C#N)c(-c4ccccc4)c(N=Nc4cccc(C(F)(F)F)c4)c(=O)n3c2cc1C
5. COc1cc(OC)c2c(c1OC)OCC(Cc1ccc(O)cc1)C2=O (stereo not given)

1: > 100 µM; 2: > 100 µM; 3: > 100 µM; 4: > 100 µM; 5: > 25 µM

Go through the list and state TGI for each entry.
1. CN1C(=O)CNC(=O)[C@H](NC(=O)c2nc3ccccc3cc2O)CSSC[C@H]1C(=O)NCCc1nc2ccccc2cc1O
2. CC1(c2ccc(Cl)cc2)CC(c2ccc(Cl)cc2)=C(C#N)C(=C(C#N)C#N)N1 (stereo not given)

["65.2 µM", "75.8 µM"]

----------
Please provide measured TGI for the entries that follow.
- Test system: M14 melanoma
- METHOD_NOTES: NCI tumour cell line growth inhibition, 48 h
One number for each entry, in µM.

COMPOUND	ENDPOINT_LABEL	RESULT_UNITS	ASSAY_VALUE
Nc1nc(Cl)cc(NCC2(CO)CCC(Cc3ccccc3)C2)n1 (centres undefined)	TGI	µM	46.6
CC[N+]1(C)CCC(O)(c2ccc(Cl)cc2)C(C(=O)c2ccc(Cl)cc2)C1 (centres undefined)	TGI	µM	36.2

Go through the list and state TGI for each entry.
1. CS(=O)(=O)CCNCc1ccc(-c2ccc3ncnc(Nc4ccc(OCc5cccc(C(F)(F)F)c5)cc4)c3c2)o1
2. O=C(CN1CCN(C(=O)OCc2ccccc2)CCN(CC(=O)N2CCCCC2)CCN(C(=O)OCc2ccccc2)CC1)N1CCCCC1

13.9
25

Field: TGI (M14 melanoma). Entry: O=C1OC(c2ccc(O)c(Cl)c2)(c2ccc(O)c(Cl)c2)c2ccc(Br)c3cccc1c23 (tested in a mixture with another compound)
49.6

----------
- Tested on: SNB-75 CNS
- METHOD_NOTES: NCI tumour cell line growth inhibition, 48 h
If the reported TGI equals or exceeds 20 µM, assign 1. If not, assign -1.

Look over these answered cases.
COMPOUND	CLASS_ASSIGNMENT
CC(=O)/C=C/C1=C(c2cc3ccccc3s2)c2ccccc2CC1	1
CC(ONC(=O)c1cc(C(F)(F)F)cc(C(F)(F)F)c1)C(=O)Nc1ccc(Cl)cc1 (centres undefined)	1

Is the recorded value of TGI equal to or greater than 20 µM for this compound? CCCCCCCCCCCCCCCc1cc(O)ccc1N
1

Now give it for CCCCCCCCCCCCCCCC(=O)OCC(O)C1OC(=O)C(O)=C1O (centres undefined) too.
1

Now give it for Cc1ccc(C)c(NC(=O)c2cc(-c3ccc([N+](=O)[O-])cc3)nc(N)n2)c1 too.
1

Now give it for NC1CC(=O)c2csc(Br)c21 (centres undefined) too.
1

Now give it for O=C(O)C1C2CC3C(OC(=O)C31)C2Br (centres undefined) too.
1

Now give it for CC(=O)OC1COC(S[As](C)C)C(OC(C)=O)C1OC(C)=O (centres undefined) too.
1

Now give it for O=C(c1cc(Cl)cc(Cl)c1)N(C(=S)OC12CC3CC(CC(C3)C1)C2)c1ccccc1 too.
1

Now give it for COc1cccc(/C=N\Nc2ccc([N+](=O)[O-])cn2)c1O too.
1

Now give it for NNC(=O)c1c(Cl)c(Cl)c(Cl)c(Cl)c1-c1nc2ccccc2[nH]1 too.
1

----------
- System: UACC-257 melanoma
- METHOD_NOTES: NCI tumour cell line growth inhibition, 48 h
Please provide measured TGI for the entries that follow.

The cases that follow already have their TGI on record.
MOLECULE	TGI
COC(=O)NCCc1[nH]nc2c1C(=O)C=C(Nc1ccccc1)C2=O	32.3 µM
COCCOC(=O)C1=C(C)NC2=C(C(=O)CC(c3ccccc3OC)C2)C1c1cccc(O)c1 (stereo unspecified)	61.1 µM
CC1(C)N=C(N)N=C(N)N1c1ccc(F)c(C(F)(F)F)c1	> 100 µM
C=CC1CC12C(=O)C1OC2(C)C2C(=O)c3c(ccc4c3ccc3ccccc34)C(=O)C12 (stereo unspecified)	> 100 µM
Cc1ccc(C(=O)C(C)N)cc1 (stereo unspecified)	> 100 µM

Go through the list and state TGI for each entry.
1. CC(=O)O[C@@H]1CO[C@H]2O[C@H]3[C@@H](C(C=O)=C[C@H](O)[C@@H]4C5=C(C(C)C)CC[C@]5(C)CC[C@@]34C)[C@@]2(O)C1=O
2. CN1CCC2(CC1)C(=O)N(N1CCCCCC1)C(=O)N2c1ccccc1
3. N#Cc1[nH]c(=O)n(-c2ccc(Cl)cc2)c1N

["0.629 µM", "> 100 µM", "> 10 µM"]

Go through the list and state TGI for each entry.
1. N=C(c1ccccc1)N(O)C1CCCCC1
2. NC1C/C(=N\O)c2c(I)sc(I)c21 (stereo unspecified)

1: > 100 µM; 2: 31.8 µM

// TGI lookup, key: Cn1c(=O)cc2c3c(c(NCCCO)ccc31)C(=O)c1ccccc1-2
> 100 µM

----------
Please provide measured TGI for the entries that follow.
- Tested on: CAKI-1 renal
- METHOD_NOTES: NCI tumour cell line growth inhibition, 48 h

The cases that follow already have their TGI on record.
COMPOUND	TARGET_SYSTEM	TGI
CCOP(=O)(Nc1ccc(-c2ccccc2)cc1)OCC	CAKI-1 renal	> 100 µM
CC(=O)O[C@H]1CC[C@]2(C)[C@H]3CC[C@@H]4[C@H]5[C@H](C(C)C)CC[C@]5(C(=O)OCC(CO)(CO)N=C(N)N)CC[C@@]4(C)[C@]3(C)CC[C@H]2C1(C)C	CAKI-1 renal	2.98 µM
Nc1nc(Cl)cc(NCC2(CO)CCC(Cc3ccccc3)C2)n1 (centres undefined)	CAKI-1 renal	95.6 µM
CC1CCCC2=C1C(c1ccc(Cl)cc1)n1c(s/c(=C\c3ccc(Cl)cc3)c1=O)=N2 (centres undefined)	CAKI-1 renal	> 100 µM

Go through the list and state TGI for each entry.
1. O=C(CSc1nc(=O)[nH]c2nc[nH]c12)Nc1ccccc1
2. COc1ccc(O)c(C(=O)c2ccc(C(=O)O[C@@H]3CCCNC[C@H]3NC(=O)c3ccncc3)cc2)c1F

1: > 100 µM; 2: > 25 µM

Go through the list and state TGI for each entry.
1. O=c1[nH]c2ccc(CC(=S)N3CCOCC3)cc2s1
2. Nc1ccc2c(c1)C(=O)c1c(F)cccc1-2
3. CCN(CC)CCOc1ccc(/C=C2\CC3C4CCC5=CC(=O)CC[C@]5(C)C4CC[C@]3(C)C2=O)cc1OC (some centres undefined)

1: > 100 µM; 2: > 100 µM; 3: 6.54 µM

Hello, the source for this data is PubChem BioAssay (NCI), in case you need it.
